Molecular target: T1, human APRIL protein (human, UniProt O75888 105-250, limits assumed)
T1 construct: Bought protein; also called recombinant APRIL protein
T1 sequence (looked up): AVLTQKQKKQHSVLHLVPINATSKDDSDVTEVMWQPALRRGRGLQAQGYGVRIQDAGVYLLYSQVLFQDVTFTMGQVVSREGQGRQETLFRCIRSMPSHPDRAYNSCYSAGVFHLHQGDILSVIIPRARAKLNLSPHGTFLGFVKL
Assay: ELISA, coated APRIL; antibody 0.0213 nM
Entries and their OD450 nm
Measured Parameter: OD450 nm

[[record]]
binder = "111D10D6G3 (antibody, V domains shown, Mouse hybridoma antibody purified on Protein G) VH: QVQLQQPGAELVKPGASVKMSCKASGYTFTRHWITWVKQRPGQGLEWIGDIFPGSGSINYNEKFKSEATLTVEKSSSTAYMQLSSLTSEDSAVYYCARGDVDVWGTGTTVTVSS VL: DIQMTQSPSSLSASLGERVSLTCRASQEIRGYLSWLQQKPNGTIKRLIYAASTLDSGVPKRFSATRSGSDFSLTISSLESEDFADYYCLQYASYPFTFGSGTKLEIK"
measured_parameter = "OD450 nm"
experimental_value = 0.0549

[[record]]
binder = "35E6F7C3 (antibody, V domains shown, Mouse hybridoma antibody purified on Protein G) VH: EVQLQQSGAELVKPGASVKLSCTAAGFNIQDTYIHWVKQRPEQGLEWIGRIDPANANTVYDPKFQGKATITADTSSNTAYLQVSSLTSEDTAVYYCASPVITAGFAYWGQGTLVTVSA VL: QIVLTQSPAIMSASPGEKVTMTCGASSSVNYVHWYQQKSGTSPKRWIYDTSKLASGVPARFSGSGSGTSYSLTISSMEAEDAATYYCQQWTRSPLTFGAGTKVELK"
measured_parameter = "OD450 nm"
experimental_value = 0.0532

[[record]]
binder = "L9G7 (antibody, human IgG1, V domains shown) VH: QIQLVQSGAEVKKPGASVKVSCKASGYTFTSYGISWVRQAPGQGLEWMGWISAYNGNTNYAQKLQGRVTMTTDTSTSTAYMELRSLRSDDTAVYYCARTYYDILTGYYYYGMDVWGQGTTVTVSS VL: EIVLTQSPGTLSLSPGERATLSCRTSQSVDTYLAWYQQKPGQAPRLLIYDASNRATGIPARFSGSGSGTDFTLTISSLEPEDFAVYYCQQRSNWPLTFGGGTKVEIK"
measured_parameter = "OD450 nm"
experimental_value = 0.0777

